# System: HeLa
# EXPERIMENTAL PROTOCOL: Antiproliferative activity against human HeLa cells assessed as inhibition of cell proliferation
# Format: functional, cell-based
RECORDED ENDPOINT: IC50 (µM)

Worked set:
> print(dat)
                    structure.smiles.string  test.system  recorded.endpoint  unit.symbol  measured.result
1  Oc1cccc(-c2cc(-c3cccc(OC(F)(F)F)c3)cc(-c3ccccc3O)n2)c1         HeLa               IC50           µM             14.9
2  Oc1ccccc1-c1cc(-c2ccccc2OC(F)(F)F)cc(-c2ccccc2O)n1         HeLa               IC50           µM             9.75
3  Oc1cccc(-c2cc(-c3ccc(OC(F)(F)F)cc3)cc(-c3cccc(O)c3)n2)c1         HeLa               IC50           µM             18.7
4  Oc1ccccc1-c1cc(-c2ccccc2C(F)(F)F)cc(-c2ccccc2O)n1         HeLa               IC50           µM              5.8
5  Oc1ccc(-c2cc(-c3ccccc3OC(F)(F)F)cc(-c3ccccc3O)n2)cc1         HeLa               IC50           µM             6.01

(1) Oc1ccc(-c2cc(-c3cccc(C(F)(F)F)c3)cc(-c3cccc(O)c3)n2)cc1
(2) Oc1cccc(-c2cc(-c3ccccc3F)cc(-c3ccccc3O)n2)c1
Could you kindly indicate whether 1 or 2 has the higher IC50 value? Lab log: write the label of the selected item as the result.
2

(P) Oc1ccc(-c2cc(-c3ccccc3C(F)(F)F)cc(-c3cccc(O)c3)n2)cc1
(Q) Oc1ccc(-c2cc(-c3ccc(F)cc3)cc(-c3ccc(O)cc3)n2)cc1
Compare IC50: is it lower for P or for Q ? Lab log: write the label of the selected item as the result.
Q

(1) Oc1ccc(-c2cc(-c3ccc(C(F)(F)F)cc3)cc(-c3cccc(O)c3)n2)cc1
(2) Oc1cccc(-c2cc(-c3cccc(F)c3)cc(-c3cccc(O)c3)n2)c1
(3) Oc1ccc(-c2cc(-c3ccc(F)cc3)cc(-c3cccc(O)c3)n2)cc1
Rank entries according to their IC50, from the largest number down. Answer by writing out the labels in the requested order.
1, 3, 2

(P) Oc1ccc(-c2cc(-c3cccc(OC(F)(F)F)c3)cc(-c3cccc(O)c3)n2)cc1
(Q) Oc1cccc(-c2cc(-c3ccc(OC(F)(F)F)cc3)cc(-c3ccccc3O)n2)c1
Compare IC50: is it lower for P or for Q ? Lab log: write the label of the selected item as the result.
P
(P: 14.1 µM, Q: 20.6 µM)

(A) Oc1cccc(-c2cc(-c3cccc(C(F)(F)F)c3)cc(-c3ccccc3O)n2)c1
(B) Oc1cccc(-c2cc(-c3cccc(C(F)(F)F)c3)cc(-c3cccc(O)c3)n2)c1
Compare IC50: is it lower for A or for B ? Lab log: write the label of the selected item as the result.
B

Reference source: ChEMBL document CHEMBL5131481
